- System: Mycobacterium avium subsp. paratuberculosis CIT03
- procedure_text: In vitro antimycobacterial evaluation (MIC/IC90, alamarBlue)
- Assay type: cell-based
- particulars: Mycobacterium avium; clinical isolate CIT03; read-out: MIC
readout: MIC (µg/mL)
# value in µg/mL; strip the unit string

Ask: Tell me MIC reported for "COc1cccc(NC(=O)c2cccc3ccccc23)c1"
Reply: 15

Ask: Tell me MIC reported for "O=C(Nc1cccc(F)c1)c1cccc2ccccc12"
Reply: 15

Ask: Tell me MIC reported for CO[C@H]1/C=C/O[C@@]2(C)Oc3c(C)c(O)c4c(O)c(c(/C=N/N5CCN(C)CC5)c(O)c4c3C2=O)NC(=O)/C(C)=C\C=C\[C@H](C)[C@H](O)[C@@H](C)[C@@H](O)[C@@H](C)[C@H](OC(C)=O)[C@@H]1C [RIF, rifampicin, reference compound]
Reply: 90

Ask: Tell me MIC reported for "Cc1ccc(NC(=O)c2cccc3ccccc23)cc1"
Reply: 15
